Biological target: FGFR1 (Homo sapiens)
Construct: purchased Millipore
Sequence (P11362 22-822): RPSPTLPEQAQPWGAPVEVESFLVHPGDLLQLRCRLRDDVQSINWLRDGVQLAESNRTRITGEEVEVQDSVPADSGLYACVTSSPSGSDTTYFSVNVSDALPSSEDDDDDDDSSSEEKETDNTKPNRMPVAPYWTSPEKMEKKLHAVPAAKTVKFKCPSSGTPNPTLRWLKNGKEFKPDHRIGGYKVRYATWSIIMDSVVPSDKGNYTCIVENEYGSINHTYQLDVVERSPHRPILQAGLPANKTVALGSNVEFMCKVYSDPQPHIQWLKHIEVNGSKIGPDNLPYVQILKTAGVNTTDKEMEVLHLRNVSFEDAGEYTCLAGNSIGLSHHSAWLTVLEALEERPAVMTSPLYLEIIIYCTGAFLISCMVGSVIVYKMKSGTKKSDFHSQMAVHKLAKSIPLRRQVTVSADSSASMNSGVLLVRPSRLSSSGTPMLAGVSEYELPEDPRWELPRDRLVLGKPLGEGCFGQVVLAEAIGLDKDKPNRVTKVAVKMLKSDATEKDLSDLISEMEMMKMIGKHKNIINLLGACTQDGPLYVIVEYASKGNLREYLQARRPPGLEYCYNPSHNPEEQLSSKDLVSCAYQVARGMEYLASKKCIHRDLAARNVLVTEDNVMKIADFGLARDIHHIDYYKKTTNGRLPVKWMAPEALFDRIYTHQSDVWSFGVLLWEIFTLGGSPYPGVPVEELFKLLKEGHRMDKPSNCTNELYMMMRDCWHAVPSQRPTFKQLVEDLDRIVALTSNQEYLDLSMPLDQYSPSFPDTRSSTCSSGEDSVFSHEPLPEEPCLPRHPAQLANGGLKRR
Assay: ELISA kinase assay, FGFR1
Assay type: biochemical
Conditions: 1 μM compound
readout.label: inhibition at 1 µM (%)

Examples from the recorded data:
Cc1ncc(-c2cnn(C)c2)cc1NS(=O)(=O)c1ccccc1 :: 15.4
Cn1cc(-c2cnc3ccn(S(=O)(=O)c4cccc(N)c4)c3n2)cn1 :: 57.5
O=[N+]([O-])c1cccc(S(=O)(=O)n2ccc3ncc(-c4ccc(CO)cc4)nc32)c1 :: 75.5

(A) Cn1cc(-c2cnc3ccn(S(=O)(=O)c4cccc([N+](=O)[O-])c4)c3n2)cn1
(B) CCC(=O)Nc1cccc(S(=O)(=O)n2ccc3ncc(-c4cnn(C)c4)nc32)c1
(C) CC(=O)Nc1cccc(S(=O)(=O)n2ccc3ncc(-c4cnn(C)c4)nc32)c1
-- ask Number of compounds to sort: 3. Sort criterion: inhibition at 1 µM, ascending. Answer format: the labels, in the requested order.
-- reply B, C, A
